protocolDetails: StAR promoter reporter inhibitors, counter-screen for LRH-1 inverse agonist project, cell-based, luminescence, high throughput (AID 651611)
conditionLabel: StAR promoter luciferase reporter counterscreen, at 3.6 µM
Active and inactive are the calls of the source. No stated cut-off is given here; in the data, active means inhibition above about 28%; inactive means the rest.
Outcomes: label 1 (active), label 0 (inactive)

INSERT INTO assay_data (compound, label) VALUES
  ('COc1ccc(C)cc1NC(=O)c1nnn(Cc2cccc(C(F)(F)F)c2)c1N', 'label 1'),
  ('CCOC(=O)c1c2c(n(-c3ccc(OC)cc3)c1C)C(=O)C(=O)c1ccccc1-2', 'label 1'),
  ('Cc1cc(NCCCCCCCNc2cc(C)nc3cc([N+](=O)[O-])ccc23)c2ccc([N+](=O)[O-])cc2n1', 'label 0'),
  ('Cc1cc(OCC(=O)Nc2ccc(OCc3ccccc3)cc2)nc(C(C)C)n1', 'label 0'),
  ('Cc1cc(NC(=O)c2ccc([N+](=O)[O-])o2)ccc1NC(=O)c1ccco1', 'label 0'),
  ('CNc1cccnc1C=NNC(N)=S', 'label 0'),
  ('S=C(Nc1ccccc1)Nc1ccc(OCc2ccc(Cl)cc2Cl)cc1', 'label 1'),
  ('O=C(CSc1nnc(Cc2cccs2)n1-c1ccccc1)Nc1ccc2c(c1)OCCO2', 'label 0'),
  ('N=c1c2c(n(Cc3ccc(Br)cc3)c3c1CCC3)CCCC2', 'label 1'),
  ('CCc1ccccc1NC(=O)CSc1nnc([C@@H](NC(=O)OC(C)(C)C)C(C)CC)o1 (stereo not given in full)', 'label 0'),
  ('Cn1c(SCC(=O)Nc2ccc(N3CCOCC3)cc2)nnc1-c1ccco1', 'label 0'),
  ('CN(C)C(=O)Cn1c(SCC(=O)Nc2ccc3c(c2)OCO3)nc2ccccc21', 'label 0'),
  ('O=C(c1ccc([N+](=O)[O-])o1)N1CCc2ccccc21', 'label 0'),
  ('Cc1ccc(/C=C2\SC(=S)N(CCCC(=O)Nc3ccccn3)C2=O)cc1', 'label 1'),
  ('CCn1c(=O)oc2cc(NC(=O)CCl)ccc21', 'label 1');
